Value source: PubChem BioAssay AID588674

protocol_details: reduction of Shn3 3'UTR firefly luciferase signal, primary screen, Schnurri-3 inhibitor project, cell-based, Clone20 osteoblasts, set 2 (AID 588674);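 further: 0% = median of neutral control wells and 100% = pilot-screen positive control compound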
experimental_setup: Clone20 osteoblast Shn3 3'UTR firefly luciferase, 24 h; at 12.5 µM
About 1,800 (0.5%) of roughly 360,000 compounds were called active.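 How the source made its calls: active means mean inhibition of at least 75% with every replicate also reaching 75%; inconclusive means mean inhibition at least 75% but some replicate below; inactive means mean inhibition below 75%.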 Shown is part of a subset that was picked to be rich in actives.
The categories you may choose from are active, inactive

Some solved entries appear below for comparison.
INSERT INTO assay_data (compound, class) VALUES
  ('Cc1cc(=O)oc2cc(OCC(=O)N3CCN(c4ccc(F)cc4)CC3)c(Cl)cc12', 'inactive'),
  ('Cc1ccc(S(=O)(=O)N(C)C)cc1NC(=O)C1Cc2ccccc2CN1C(=O)c1ccco1 (stereo not given)', 'inactive'),
  ('COCCCNC(=O)Cn1cc(C(=O)C2CC2)c2ccccc21', 'inactive'),
  ('Cc1c(Br)c([N+](=O)[O-])nn1CC(=O)Nc1sc2c(c1C(=O)OC(C)C)CCC(C)C2 (stereo not given)', 'inactive'),
  ('O=c1cc(CN2CCCCCCC2)c2c(ccc3ccccc32)o1', 'inactive');

Now turn to the next compound.
Q. Tell me the assay call for `O=C(/C=C/Sc1ncn[nH]1)c1ccc(Cl)cc1` please.
A. active

----------
protocol_details: reduction of Shn3 3'UTR firefly luciferase signal, primary screen, Schnurri-3 inhibitor project, cell-based, Clone20 osteoblasts, set 2 (AID 588674)
experimental_setup: Clone20 osteoblast Shn3 3'UTR firefly luciferase, 24 h; at 12.5 µM
Among all 360,000 compounds or so, about 1,800 (0.5%) were called active.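 How the source made its calls: active means mean inhibition of at least 75% with every replicate also reaching 75%; inconclusive means mean inhibition at least 75% but some replicate below; inactive means mean inhibition below 75%.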 Many of the other results were omitted from the sample, so actives are more common in it than they were.
The categories you may choose from are active, inactive

Some solved entries appear below for comparison.
INSERT INTO measurements (compound, class) VALUES
  ('Cc1cccc(NC(=O)Cn2cc(C(=O)c3ccco3)c3ccccc32)c1', 'inactive'),
  ('OCCCNc1nccc(-c2cc(Nc3cccc(Cl)c3)ncn2)n1', 'active'),
  ('Cc1cc(C)nc(SC(C)C(=O)N/N=C/c2cccs2)n1 (stereo unspecified)', 'inactive'),
  ('COC(c1ccccc1)(c1ccccc1)C(Oc1nc(C)cc(C)n1)C(=O)O (stereo unspecified)', 'inactive'),
  ('COc1cc(C(=O)OCCCN2CCOCC2)cc(OC)c1OC', 'inactive');

Now turn to the next compound.
Q. Tell me the assay call for `C=CCC(CC=C)(C(N)=O)c1ccccc1` please.
A. inactive

----------
protocol_details: reduction of Shn3 3'UTR firefly luciferase signal, primary screen, Schnurri-3 inhibitor project, cell-based, Clone20 osteoblasts, set 2 (AID 588674)
experimental_setup: Clone20 osteoblast Shn3 3'UTR firefly luciferase, 24 h; at 12.5 µM; active compounds read high
The whole screen tested about 360,000 compounds, of which about 1,800 (0.5%) were called active. The full list was thinned out, with actives kept by preference.
# Lookup of reported inhibition keyed by entry
Record the value in %, omitting the unit from your answer.

INSERT INTO measurements (compound, unit_abbrev, value_observed) VALUES
  ('COc1ccc(C(C)(O)c2nc(-c3ccc(C)c(C)c3)cs2)cc1 (stereo not given)', '%', 8.01),
  ('CC(C)(C)c1ccc(/C=C2\Oc3c(ccc(O)c3CN3CCN(CCO)CC3)C2=O)cc1', '%', 7.57);

Q. Field request: inhibition | item: `Cc1ccc(-n2c(SCC(=O)N/N=C/C=C/c3ccccc3[N+](=O)[O-])nc3ccccc3c2=O)cc1`
A. 1.32

Q. Field request: inhibition | item: `Cc1ccc(-c2nc3ccc(Cl)cn3c2Cc2ccccc2)cc1`
A. -75.7

Q. Field request: inhibition | item: `Cn1c(SCC(=O)N2CCOCC2)nnc1-c1ccc2ncccc2c1`
A. -2.77

Q. Field request: inhibition | item: `COc1ccc(S(=O)(=O)N2CCCCCC2)cc1NC(=O)Cc1ccc(OC)c(OC)c1`
A. 6.94

Q. Field request: inhibition | item: `COc1ccc(-c2ccc(Nc3ccc(S(=O)(=O)N4CCCC4)cc3)nn2)cc1OC`
A. 91.7

----------
protocol_details: reduction of Shn3 3'UTR firefly luciferase signal, primary screen, Schnurri-3 inhibitor project, cell-based, Clone20 osteoblasts, set 2 (AID 588674);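 further: 0% = median of neutral control wells and 100% = pilot-screen positive control compound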
experimental_setup: Clone20 osteoblast Shn3 3'UTR firefly luciferase, 24 h; at 12.5 µM; active compounds read high
About 1,800 (0.5%) of roughly 360,000 compounds were called active. Only a selection was taken, and actives are over-represented in it overall.
metric: inhibition (%)
Record the value in %, omitting the unit from your answer.

Answered examples (3):
INSERT INTO results (compound, unit_abbrev, value_observed) VALUES
  ('CC(C)Cn1cnc2c(SCc3ccc(Cl)cc3)nc(N)nc21', '%', 11.7),
  ('CCOC(=O)c1c(C)[nH]c(C2=NNC(=NC(C)COC)SC2)c1C (stereo unspecified)', '%', -21.6),
  ('CCCn1c(=S)[nH]c2ccc(C(F)(F)F)cc21', '%', -4.29);

Q. Field request: inhibition | item: `CNC(=O)c1nnn(-c2ccccc2)c1C(=O)NC`
A. -6.31

Q. Field request: inhibition | item: `Fc1ccc2[nH]c3c(N4CCSCC4)ncnc3c2c1`
A. 89.7

Q. Field request: inhibition | item: `O=C(CSc1nnnn1-c1ccc2c(c1)CCC2)Nc1ccc2c(c1)OCCO2`
A. 0.48

----------
protocol_details: reduction of Shn3 3'UTR firefly luciferase signal, primary screen, Schnurri-3 inhibitor project, cell-based, Clone20 osteoblasts, set 2 (AID 588674);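 further: 0% = median of neutral control wells and 100% = pilot-screen positive control compound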
experimental_setup: Clone20 osteoblast Shn3 3'UTR firefly luciferase, 24 h; at 12.5 µM
Hit rate of the full screen: of about 360,000 compounds, about 1,800 (0.5%) were called active.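 The calls were made as follows: active = mean inhibition of at least 75% with every replicate also reaching 75%; inconclusive = mean inhibition at least 75% but some replicate below; inactive = mean inhibition below 75%.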 This excerpt belongs to a sample that is enriched for actives.
The categories you may choose from are True = active, False = inactive

Some solved entries appear below for comparison.
INSERT INTO results (molecule, class) VALUES
  ('Cc1cccc(-n2ncc3c(=O)[nH]c(SCC(=O)Nc4cc(C)on4)nc32)c1', 'False'),
  ('COc1ccc2cc(C3=CC(=O)C[C@H](c4ccc5c(c4)OCO5)C3)ccc2c1', 'False'),
  ('COCCNS(=O)(=O)c1cc(Br)ccc1OC', 'False'),
  ('Fc1cccc2ncnc(OCc3ccccc3)c12', 'False'),
  ('CC(=O)Nc1ccc(N2C(=O)CCC2=O)cc1C', 'False'),
  ('COc1cc(F)ccc1-c1cc(C(=O)NCC2CCCCC2)[nH]n1', 'False'),
  ('O=C(CCS(=O)(=O)c1ccccc1)NC1CCCC1', 'False'),
  ('CC1(C)CC(=O)C=C(c2cccc3c2Oc2ccccc2S3)C1', 'False'),
  ('COc1cccc2sc(N(CCCN(C)C)C(=O)CCS(=O)(=O)c3ccccc3)nc12', 'True'),
  ('O=C1C=C(c2ccnc3cc(Cl)ccc23)C[C@@H](c2ccc3c(c2)OCO3)C1', 'True');

Q. Tell me the assay call for `COc1cc2c(cc1OC)C(=O)NCC(C)(C)O2` please.
A. False

Q. Tell me the assay call for CC1=NNC(=O)C1CCC(=O)N/N=C\c1cccc(Cl)c1 (stereo not drawn) please.
A. False

----------
protocol_details: reduction of Shn3 3'UTR firefly luciferase signal, primary screen, Schnurri-3 inhibitor project, cell-based, Clone20 osteoblasts, set 2 (AID 588674);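 further: 0% = median of neutral control wells and 100% = pilot-screen positive control compound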
experimental_setup: Clone20 osteoblast Shn3 3'UTR firefly luciferase, 24 h; at 12.5 µM; active compounds read high
Among all 360,000 compounds or so, about 1,800 (0.5%) were called active. This excerpt belongs to a sample that is enriched for actives.
Classification field: rule met = inhibition at or over -10%; rule not met = inhibition under -10%.

Some solved entries appear below for comparison.
INSERT INTO assay_data (compound, class) VALUES
  ('NC(=O)CSc1nnc(NC(=O)c2ccc(Br)o2)s1', 'rule not met'),
  ('CSc1nnc(NC(=O)c2nc(S(=O)(=O)Cc3ccc(C)cc3)ncc2Cl)s1', 'rule met'),
  ('C[C@@H]1C[C@@H]2O[C@H]2/C=C\C=C\C(=O)Cc2c(Cl)c(O)cc(O)c2C(=O)O1', 'rule met'),
  ('COC(=O)c1c(NC(=O)c2ccc(S(=O)(=O)N3CCOCC3)cc2)sc2c1CCN(C(C)C)C2', 'rule not met');

Q. Say whether `O=C(Nc1nnc(-c2ccc(F)cc2)s1)c1c(F)cccc1Cl` shows inhibition of -10% or more.
A. rule not met

Q. Say whether COc1ccccc1N1CCN(C(=O)C2Cc3ccccc3CN2C(=O)c2ccco2)CC1 (stereo unspecified) shows inhibition of -10% or more.
A. rule not met

Q. Say whether CC(/C=C/C1(O)C(C)CC(=O)CC1(C)C)OC1OC(CO)C(O)C(O)C1O (stereo unspecified) shows inhibition of -10% or more.
A. rule not met

Q. Say whether O=C(Nc1ccccc1Cl)/C(Cl)=C(\Cl)S(=O)c1ccccc1 (stereo unspecified) shows inhibition of -10% or more.
A. rule met
